Task for the reader: assign each of the following molecules its reported GI50.
Test system: K562
methodDescription: NCI tumour cell line growth inhibition, 48 h
Activity calls are given as the source filed them. Rule as the data show it: active = GI50 up to about 1.1 µM and inactive = higher.

Give reported GI50 value for COC(=O)c1ccccc1C1=C([N+](=O)[O-])C(c2cccc(Br)c2)C(C#N)=C(N)O1 (stereo not given)
19.9 µM (inactive)

Give reported GI50 value for CC1CCc2sc3nc(S)n(C)c(=O)c3c2C1 (stereo not given)
42.2 µM (inactive)

Give reported GI50 value for `O=[N+]([O-])c1cccnc1NCC1(CO)CCCC1`
18.5 µM (inactive)

Give reported GI50 value for O=C(c1nc2ccc(Cl)cc2[nH]c1=O)C(O)c1cccc([N+](=O)[O-])c1 (stereo not given)
28.6 µM (inactive)

Give reported GI50 value for O=C1CC=C2C3CC4N(CCC45c4ccccc4N1C25)C/C3=C\CO (stereo not given)
> 100 µM (inactive)

Give reported GI50 value for `O=C1c2ccccc2C(=O)N1n1c(Cc2ccc(Cl)cc2)n[nH]c1=O`
> 100 µM (inactive)

Give reported GI50 value for `c1ccc2cc(CN3CCC(C4CCN(Cc5ccc6ccccc6c5)CC4)CC3)ccc2c1`
0.692 µM (active)

Give reported GI50 value for `COC(=O)c1cc2cc(OC)c(OC)cc2cc(C(=O)OC)c1=O`
> 100 µM (inactive)

Give reported GI50 value for Cc1ccc(NC(=O)C(Cc2c[nH]c3ccccc23)NC(=O)Oc2ccccc2)cc1C (stereo not given)
59 µM (inactive)

Give reported GI50 value for `C/C(CC(=O)Nc1ccc(C)cc1C)=N/N=C(N)N`
> 100 µM (inactive)

Give reported GI50 value for COC(=O)C1Cc2c(C)cccc2C1=O (stereo not given)
66.7 µM (inactive)

Give reported GI50 value for `c1ccc2c(c1)CCc1cc3cc4c(nc3nc1-2)-c1ccccc1CC4`
> 100 µM (inactive)

Give reported GI50 value for `CC(=O)CC(=O)c1cc2c(=O)oc(C)cc2oc1=O`
> 37.5 µM (inactive)

Give reported GI50 value for `CCC(=O)CC(=O)CCC(=O)Nc1cc(C)ccc1C`
> 100 µM (inactive)

Give reported GI50 value for C[C@H](CC[C@@H](O)C(C)(C)O)[C@H]1CC[C@@]2(C)[C@@H]3CC=C4[C@@H](CC[C@H](OC5OC(CO)C(O)C(O)C5O)C4(C)C)[C@]3(C)C(=O)C[C@]12C (stereo not given in full)
18.9 µM (inactive)

Give reported GI50 value for CCCNC(=O)N(C)C(=O)N1N=C(c2ccccc2)C1c1ccccc1 (stereo not given)
49 µM (inactive)

Give reported GI50 value for COC1C(OC(=O)c2ccc(C)[nH]2)C(O)C(Oc2ccc3c(O)c(NC(=O)c4c[nH]c(C(=O)Nc5c(O)c6ccc(OC7OC(C)(C)C(OC)C(OC(=O)c8ccc(C)[nH]8)C7O)c(C)c6oc5=O)c4C)c(=O)oc3c2C)OC1(C)C (stereo not given)
2.84 µM (inactive)

Give reported GI50 value for `COc1cc2c(cc1OCc1ccccc1)CNCC2`
> 100 µM (inactive)

Give reported GI50 value for `Cc1nc(O)nc(N/N=C/c2c3ccccc3c(Cl)c3ccccc23)c1C(=O)Nc1ccc(Cl)cc1`
68.5 µM (inactive)

Give reported GI50 value for `C/C(=N\C1CCCCC1)c1ccccc1O`
> 100 µM (inactive)
